- PROCEDURE SUMMARY: Volume of distribution at steady state in Kunming mouse at 10 mg/kg, iv measured upto 24 hrs by LC-MS analysis
- Assay type: ADME, organism-based
- STUDY CONDITIONS: in vivo, read-out: Vdss
REPORTED PROPERTY: Vd
Output should be the measured figure followed by the unit it is expressed in.

Name the reported Vd value associated with the compound OCCN(CCO)c1nccc(-n2cncn2)n1 2.1 L/kg

====

- Tested on: Staphylococcus aureus
- PROCEDURE SUMMARY: Antibacterial activity against Staphylococcus aureus ATCC 25923 assessed as bacterial growth inhibition incubated for 24 hrs by broth microdilution method
- Type: functional
Rule: MIC below 400 µM gives yes. Equal to or above 400 µM gives no.

These solved cases illustrate the format of a correct answer.
OCCN(CCO)c1nccc(-n2ccnc2)n1 | no
Cc1nccn1-c1nccc(N(CCO)CCO)n1 | no
Cc1cn(-c2ccnc(N(CCO)CCO)n2)c(C)n1 | no
CN(C)c1nccc(-n2cncn2)n1 | no
CC(=O)Nc1ccc(S(=O)(=O)N2CCN(c3nccc(-n4cncn4)n3)CC2)cc1 | yes

For O=[N+]([O-])c1cn(-c2ccnc(N(CCO)CCO)n2)cn1 , is the recorded MIC below the cut-off of 400 µM? no

For O=C1c2cccc3c(N4CCN(c5nccc(-n6cncn6)n5)CC4)ccc(c23)C(=O)N1CCO , is the recorded MIC below the cut-off of 400 µM? yes

For O=S(=O)(c1ccc(F)cc1)N1CCN(c2nccc(-n3cncn3)n2)CC1 , is the recorded MIC below the cut-off of 400 µM? yes

For Cc1cn(-c2nccc(N(CCO)CCO)n2)cn1 , is the recorded MIC below the cut-off of 400 µM? no

For CCn1cc(C(=O)O)c(=O)c2cc(F)c(N3CCNCC3)cc21 , is the recorded MIC below the cut-off of 400 µM? yes

For Cc1cn(-c2ccnc(N(CCO)CCO)n2)cn1 , is the recorded MIC below the cut-off of 400 µM? no

====

Task for the reader: assign each of the following compounds its reported MIC.
- Test system: Escherichia coli
- PROCEDURE SUMMARY: Antibacterial activity against Escherichia coli ATCC 25922 assessed as bacterial growth inhibition incubated for 24 hrs by broth microdilution method
- Assay type: functional
Answers are plain numbers, in µM.

Here is how some compounds turned out for MIC.
O=S(=O)(c1ccc(F)cc1)N1CCN(c2nccc(-n3cncn3)n2)CC1 | 658
Cc1cc2ncn(-c3ccnc(N(CCO)CCO)n3)c2cc1C | 782
O=C1c2cccc3c(N4CCN(c5nccc(-n6cncn6)n5)CC4)ccc(c23)C(=O)N1CCO | 545

List the reported MIC of each compound below.
1. O=C(C(Cl)Cl)N1CCN(c2nccc(-n3cncn3)n2)CC1
2. OCCN(CCO)c1nccc(-n2cncn2)n1

1. 353
2. 1

Name the reported MIC value associated with the compound Cc1nccn1-c1ccnc(N(CCO)CCO)n1 973

====

- Tested on: Escherichia coli
- PROCEDURE SUMMARY: Antibacterial activity against Escherichia coli ATCC 25922 assessed as bacterial growth inhibition incubated for 24 hrs by broth microdilution method
- Type: functional
Task for the reader: assign each of the following compounds its reported MIC.
One number for each entry, in µM.

Here is how some compounds turned out for MIC.
OCCN(CCO)c1nccc(-n2cnc3ccccc32)n1 | 856
CN(C)c1nccc(-n2cncn2)n1 | 673

Turning now to a further record.
Name the reported MIC value associated with the compound CO/N=C(/C(=O)N1CCN(c2nccc(-n3cncn3)n2)CC1)c1csc(N)n1 147

====

- Test system: Escherichia coli
- PROCEDURE SUMMARY: Antibacterial activity against Escherichia coli assessed as bacterial growth inhibition incubated for 24 hrs by broth microdilution method
- Type: functional
Entries are sorted into classes by MIC as follows: low (below 600 µM), moderate (600 µM to below 900 µM), high (900 µM or more)

These solved cases illustrate the format of a correct answer.
Cc1cn(-c2ccnc(N(CCO)CCO)n2)cn1 | high
CCn1cc(C(=O)O)c(=O)c2cc(F)c(N3CCNCC3)cc21 | low
O=c1ccc2c(CN3CCN(c4nccc(-n5cncn5)n4)CC3)cc(O)cc2o1 | moderate
Cc1cc2ncn(-c3ccnc(N(CCO)CCO)n3)c2cc1C | low
Nc1ccc(S(=O)(=O)Nc2ncccn2)cc1 | low
OCCN(CCO)c1nccc(-n2cncn2)n1 | high
O=C(C(Cl)Cl)N1CCN(c2nccc(-n3cncn3)n2)CC1 | moderate
O=C1c2cccc3c(N4CCN(c5nccc(-n6cncn6)n5)CC4)ccc(c23)C(=O)N1CCO | low

Class for O=S(=O)(c1ccc(F)cc1)N1CCN(c2nccc(-n3cncn3)n2)CC1 ? moderate

Class for Cc1nccn1-c1nccc(N(CCO)CCO)n1 ? high

Class for Brc1ccc2c3ccccc3n(-c3nccc(-n4cncn4)n3)c2c1 ? moderate

Class for O=[N+]([O-])c1cn(-c2ccnc(N(CCO)CCO)n2)cn1 ? low

Class for OCCN(CCO)c1nccc(-n2cnc3ccccc32)n1 ? low

Class for OCCN(CCO)c1ccnc(-n2ccnc2-c2ccccc2)n1 ? moderate

Class for OCCN(CCO)c1nccc(-n2cnnn2)n1 ? high

Class for CN(CCO)c1nccc(-n2cncn2)n1 ? high

Class for OCCN(CCO)c1nccc(-n2ccnc2)n1 ? high

Class for Cc1ncc([N+](=O)[O-])n1-c1nccc(N(CCO)CCO)n1 ? low

Class for O=C(c1ccccc1)N1CCN(c2nccc(-n3cncn3)n2)CC1 ? moderate

Class for Cc1nc2ccccc2n1-c1ccnc(N(CCO)CCO)n1 ? low

Class for Clc1ccc2c3ccccc3n(-c3nccc(-n4cncn4)n3)c2c1 ? moderate

Class for Cc1ncc([N+](=O)[O-])n1-c1ccnc(N(CCO)CCO)n1 ? low

Class for CC(C)N(c1nccc(-n2cncn2)n1)C(C)C ? high

====

- System: Escherichia coli
- PROCEDURE SUMMARY: Antibacterial activity against Escherichia coli ATCC 25922 assessed as bacterial growth inhibition incubated for 24 hrs by broth microdilution method
- Assay type: functional
REPORTED PROPERTY: MIC

O=C(CCCCl)N1CCN(c2nccc(-n3cncn3)n2)CC1 | 382 µM
O=C(c1ccccc1)N1CCN(c2nccc(-n3cncn3)n2)CC1 | 6 µM
OCCN(CCO)c1nccc(-n2cnnn2)n1 | 1020 µM

Name the reported MIC value associated with the compound OCCN(CCO)c1ccnc(-n2ccnc2)n1 2060 µM

====

- Test system: Staphylococcus aureus
- PROCEDURE SUMMARY: Antibacterial activity against Staphylococcus aureus ATCC 29213 assessed as bacterial growth inhibition incubated for 24 hrs by broth microdilution method
- Format: functional
REPORTED PROPERTY: MIC (µM)
Answers are plain numbers, in µM.

Here is how some compounds turned out for MIC.
CCc1nccn1-c1nccc(N(CCO)CCO)n1 | 924
Cc1cn(-c2ccnc(N(CCO)CCO)n2)c(C)n1 | 924
CCc1nccn1-c1ccnc(N(CCO)CCO)n1 | 924
Cc1nccn1-c1nccc(N(CCO)CCO)n1 | 973
O=C(CCCCl)N1CCN(c2nccc(-n3cncn3)n2)CC1 | 764
O=[N+]([O-])c1cn(-c2ccnc(N(CCO)CCO)n2)cn1 | 870
Cc1cn(-c2nccc(N(CCO)CCO)n2)c(C)n1 | 924

Turning now to a further record.
Name the reported MIC value associated with the compound CO/N=C(/C(=O)N1CCN(c2nccc(-n3cncn3)n2)CC1)c1csc(N)n1 587

====

- Test system: Enterococcus faecalis
- PROCEDURE SUMMARY: Antibacterial activity against Enterococcus faecalis assessed as bacterial growth inhibition incubated for 24 hrs by broth microdilution method
- Format: functional
REPORTED PROPERTY: MIC (µM)
Answers are plain numbers, in µM.

Here is how some compounds turned out for MIC.
Cc1nccn1-c1nccc(N(CCO)CCO)n1 | 973
CCn1cc(C(=O)O)c(=O)c2cc(F)c(N3CCNCC3)cc21 [NORFLOXACIN] | 100
Cc1cc2ncn(-c3ccnc(N(CCO)CCO)n3)c2cc1C | 196
CCc1nccn1-c1nccc(N(CCO)CCO)n1 | 924

Name the reported MIC value associated with the compound CC(=O)Nc1ccc(S(=O)(=O)N2CCN(c3nccc(-n4cncn4)n3)CC2)cc1 598

====

- Test system: Escherichia coli
- PROCEDURE SUMMARY: Antibacterial activity against Escherichia coli assessed as bacterial growth inhibition incubated for 24 hrs by broth microdilution method
- Assay type: functional
Task for the reader: assign each of the following compounds its reported MIC.
Numbers only, in µM.

Here is how some compounds turned out for MIC.
Cc1cn(-c2ccnc(N(CCO)CCO)n2)c(C)n1 | 924
CCCc1nccn1-c1nccc(N(CCO)CCO)n1 | 879
CC(C)c1nccn1-c1nccc(N(CCO)CCO)n1 | 879
Cc1cn(-c2nccc(N(CCO)CCO)n2)c(C)n1 | 924
CCc1nccn1-c1nccc(N(CCO)CCO)n1 | 924
CCCc1nccn1-c1ccnc(N(CCO)CCO)n1 | 879
CCN(CC)c1nccc(-n2cncn2)n1 | 587
Cc1cn(-c2nccc(N(CCO)CCO)n2)cn1 | 973

List the reported MIC of each compound below.
1. OCCN(CCO)c1ccnc(-n2ccnc2)n1
2. O=C(CCl)N1CCN(c2nccc(-n3cncn3)n2)CC1

1: 1030; 2: 208

Entry source: ChEMBL document CHEMBL5380831
